Biological target: C-X-C chemokine receptor type 4 (Homo sapiens)
Assay: Displacement of biotinylated TN14003 from CXCR4 CXCL12 binding domain in human MDA-MB-231 cells preincubated for 10 mins followed by biotinylated TN14003 addition measured after 30 mins using streptavidin-conjugated rhodamine by fluorescence microscopic analysis
Assay type: cell-based
Recorded EC values for a group of molecules are listed next.
Form entry: value (nM) — number only.

Example entries begin here.
molecule | readout-number
CN(Cc1ccc(CN(C)c2ccccc2)cc1)c1ccccc1 | 1000
CN(Cc1ccc(CN(C)c2ccc(F)cc2)cc1)c1ccc(F)cc1 | 100
c1cc(CN2CCCC2)ccc1CN1CCCC1 | 1000
c1ccc(CN(Cc2ccc(CN(Cc3ccccc3)CC3CC3)cc2)CC2CC2)cc1 | 1000

*Q* I'm curious: which EC was measured for "c1cc(CN2CCCCC2)ccc1CN1CCCCC1" tested on C-X-C chemokine receptor type 4 (Homo sapiens)?
*A* 10

*Q* I'm curious: which EC was measured for "COc1cccc(CN(C)Cc2ccc(CN(C)Cc3cccc(OC)c3)cc2)c1" tested on C-X-C chemokine receptor type 4 (Homo sapiens)?
*A* 10

*Q* I'm curious: which EC was measured for "CCN(Cc1ccccc1)Cc1ccc(CN(CC)Cc2ccccc2)cc1" tested on C-X-C chemokine receptor type 4 (Homo sapiens)?
*A* 1000

*Q* I'm curious: which EC was measured for c1cc(CN2CCCNCCNCCCNCC2)ccc1CN1CCCNCCNCCCNCC1 [PLERIXAFOR] tested on C-X-C chemokine receptor type 4 (Homo sapiens)?
*A* 1000

*Q* I'm curious: which EC was measured for "CN(Cc1ccc(CN(C)Cc2cccc(Cl)c2)cc1)Cc1cccc(Cl)c1" tested on C-X-C chemokine receptor type 4 (Homo sapiens)?
*A* 1000
